Entries and their measured kcat follow.
Substrate: NC(=O)C1=CN([C@@H]2O[C@H](COP(=O)(O)OP(=O)(O)OC[C@H]3O[C@@H](n4cnc5c(N)ncnc54)[C@H](O)[C@@H]3O)[C@@H](O)[C@H]2O)C=CC1
test.summary: purified protein, by the assay type
measurement.conditions: other: Table 15, substrate NADH; tag N; apparent values; pH 8.0
quantity.kind: kcat (s⁻¹)

protein	quantitative.result
Comamonas testosteroni 3α-HSDH mutant [L68A], N-terminal hexahistidine tag (Comamonas testosteroni; L68A) (protein) MSIIVISGCATGIGAATRKVLEAAGHQIVGIDIRDAEVIADLSTAEGRKQAIADVLAKCSKGMDGLVACAGLGPQTKVLGNVVSVNYFGATELMDAFLPALKKGHQPAAVVISSVASAHLAFDKNPLALALEAGEEAKARAIVEHAGEQGGNLAYAGSKNALTVAVRKRAAAWGEAGVRLNTIAPGATETPLLQAGLQDPRYGESIAKFVPPMGRRAEPSEMASVIAFLMSPAASYVHGAQIVIDGGIDAVMRPTQF	110
Comamonas testosteroni 3α-HSDH mutant [T188A], N-terminal hexahistidine tag (Comamonas testosteroni; T188A) (protein) MSIIVISGCATGIGAATRKVLEAAGHQIVGIDIRDAEVIADLSTAEGRKQAIADVLAKCSKGMDGLVLCAGLGPQTKVLGNVVSVNYFGATELMDAFLPALKKGHQPAAVVISSVASAHLAFDKNPLALALEAGEEAKARAIVEHAGEQGGNLAYAGSKNALTVAVRKRAAAWGEAGVRLNTIAPGAAETPLLQAGLQDPRYGESIAKFVPPMGRRAEPSEMASVIAFLMSPAASYVHGAQIVIDGGIDAVMRPTQF	130
Comamonas testosteroni 3α-HSDH dual mutant [L68A/T188S], N-terminal hexahistidine tag (Comamonas testosteroni; L68A/T188S) (protein) MSIIVISGCATGIGAATRKVLEAAGHQIVGIDIRDAEVIADLSTAEGRKQAIADVLAKCSKGMDGLVACAGLGPQTKVLGNVVSVNYFGATELMDAFLPALKKGHQPAAVVISSVASAHLAFDKNPLALALEAGEEAKARAIVEHAGEQGGNLAYAGSKNALTVAVRKRAAAWGEAGVRLNTIAPGASETPLLQAGLQDPRYGESIAKFVPPMGRRAEPSEMASVIAFLMSPAASYVHGAQIVIDGGIDAVMRPTQF	91.8
Comamonas testosteroni 3α-HSDH dual mutant [P185A/T188A], N-terminal hexahistidine tag (Comamonas testosteroni; P185A/T188A) (protein) MSIIVISGCATGIGAATRKVLEAAGHQIVGIDIRDAEVIADLSTAEGRKQAIADVLAKCSKGMDGLVLCAGLGPQTKVLGNVVSVNYFGATELMDAFLPALKKGHQPAAVVISSVASAHLAFDKNPLALALEAGEEAKARAIVEHAGEQGGNLAYAGSKNALTVAVRKRAAAWGEAGVRLNTIAAGAAETPLLQAGLQDPRYGESIAKFVPPMGRRAEPSEMASVIAFLMSPAASYVHGAQIVIDGGIDAVMRPTQF	17.6
Comamonas testosteroni 3α-HSDH mutant [T188S], N-terminal hexahistidine tag (Comamonas testosteroni; T188S) (protein) MSIIVISGCATGIGAATRKVLEAAGHQIVGIDIRDAEVIADLSTAEGRKQAIADVLAKCSKGMDGLVLCAGLGPQTKVLGNVVSVNYFGATELMDAFLPALKKGHQPAAVVISSVASAHLAFDKNPLALALEAGEEAKARAIVEHAGEQGGNLAYAGSKNALTVAVRKRAAAWGEAGVRLNTIAPGASETPLLQAGLQDPRYGESIAKFVPPMGRRAEPSEMASVIAFLMSPAASYVHGAQIVIDGGIDAVMRPTQF	96.1
Comamonas testosteroni 3α-HSDH dual mutant [L68A/T188A], N-terminal hexahistidine tag (Comamonas testosteroni; L68A/T188A) (protein) MSIIVISGCATGIGAATRKVLEAAGHQIVGIDIRDAEVIADLSTAEGRKQAIADVLAKCSKGMDGLVACAGLGPQTKVLGNVVSVNYFGATELMDAFLPALKKGHQPAAVVISSVASAHLAFDKNPLALALEAGEEAKARAIVEHAGEQGGNLAYAGSKNALTVAVRKRAAAWGEAGVRLNTIAPGAAETPLLQAGLQDPRYGESIAKFVPPMGRRAEPSEMASVIAFLMSPAASYVHGAQIVIDGGIDAVMRPTQF	111

Recorded values, source patent US10487348B2.
